Provide the reported pIC50 of each item.
Target: jack bean urease (Canavalia ensiformis)
Sequence (P07374 whole entry, looked up): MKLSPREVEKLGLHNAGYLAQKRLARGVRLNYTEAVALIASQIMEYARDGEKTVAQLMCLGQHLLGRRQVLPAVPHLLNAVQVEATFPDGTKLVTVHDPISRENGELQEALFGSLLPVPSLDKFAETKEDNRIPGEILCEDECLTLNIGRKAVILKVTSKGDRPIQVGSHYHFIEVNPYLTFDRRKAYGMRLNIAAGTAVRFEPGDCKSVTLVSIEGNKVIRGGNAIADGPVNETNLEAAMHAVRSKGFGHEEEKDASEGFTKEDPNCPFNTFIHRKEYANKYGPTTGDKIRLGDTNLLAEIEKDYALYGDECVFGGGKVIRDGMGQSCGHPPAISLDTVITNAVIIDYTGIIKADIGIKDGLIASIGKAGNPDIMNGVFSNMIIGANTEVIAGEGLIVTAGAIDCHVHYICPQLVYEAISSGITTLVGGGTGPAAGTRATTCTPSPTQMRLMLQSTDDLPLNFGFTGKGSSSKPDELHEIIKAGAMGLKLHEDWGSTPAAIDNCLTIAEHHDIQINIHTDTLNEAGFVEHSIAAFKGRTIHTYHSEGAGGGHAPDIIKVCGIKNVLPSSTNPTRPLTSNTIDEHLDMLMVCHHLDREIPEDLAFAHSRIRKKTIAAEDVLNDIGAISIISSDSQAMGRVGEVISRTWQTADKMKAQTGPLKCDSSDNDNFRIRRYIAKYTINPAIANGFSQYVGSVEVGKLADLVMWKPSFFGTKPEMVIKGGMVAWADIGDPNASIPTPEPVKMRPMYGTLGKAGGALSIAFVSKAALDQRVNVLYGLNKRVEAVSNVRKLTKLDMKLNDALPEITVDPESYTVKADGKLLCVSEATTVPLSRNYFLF
Assay: biochemical
Assay type: biochemical
Description: The urease inhibitory activity was measured according to a reported method with slight modifications. The enzyme (5 U/mL; 10 μL) and test compound in buffer (10 μL) were sequentially added to 40 μL of buffer (pH 8.2) containing 100 mM urea, 1 mM EDTA, 0.01 M K2HPO4 and 0.01 M […]. The mixture was pre-incubated for 30 min at 37 °C. […] After 10 min of incubation at 37 °C, the absorbance was measured at 630 nm using a Microplate reader (Bio-Tek ELx 800^TM, Instruments, Inc. USA). […]
Quick note: pIC50 values are minus log10 of concentrations in mol/L.

Challenge: Looking for the measured pIC50 of "S=C1NCCN1" , can you help?
Response given: 3.63

Challenge: Looking for the measured pIC50 of "S=C1NCCCN1" , can you help?
Response given: 3.93
